Let's go through some IC50 measurements on PI3K β (Homo sapiens, UniProt P42338) together.
Sequence (P42338 whole entry): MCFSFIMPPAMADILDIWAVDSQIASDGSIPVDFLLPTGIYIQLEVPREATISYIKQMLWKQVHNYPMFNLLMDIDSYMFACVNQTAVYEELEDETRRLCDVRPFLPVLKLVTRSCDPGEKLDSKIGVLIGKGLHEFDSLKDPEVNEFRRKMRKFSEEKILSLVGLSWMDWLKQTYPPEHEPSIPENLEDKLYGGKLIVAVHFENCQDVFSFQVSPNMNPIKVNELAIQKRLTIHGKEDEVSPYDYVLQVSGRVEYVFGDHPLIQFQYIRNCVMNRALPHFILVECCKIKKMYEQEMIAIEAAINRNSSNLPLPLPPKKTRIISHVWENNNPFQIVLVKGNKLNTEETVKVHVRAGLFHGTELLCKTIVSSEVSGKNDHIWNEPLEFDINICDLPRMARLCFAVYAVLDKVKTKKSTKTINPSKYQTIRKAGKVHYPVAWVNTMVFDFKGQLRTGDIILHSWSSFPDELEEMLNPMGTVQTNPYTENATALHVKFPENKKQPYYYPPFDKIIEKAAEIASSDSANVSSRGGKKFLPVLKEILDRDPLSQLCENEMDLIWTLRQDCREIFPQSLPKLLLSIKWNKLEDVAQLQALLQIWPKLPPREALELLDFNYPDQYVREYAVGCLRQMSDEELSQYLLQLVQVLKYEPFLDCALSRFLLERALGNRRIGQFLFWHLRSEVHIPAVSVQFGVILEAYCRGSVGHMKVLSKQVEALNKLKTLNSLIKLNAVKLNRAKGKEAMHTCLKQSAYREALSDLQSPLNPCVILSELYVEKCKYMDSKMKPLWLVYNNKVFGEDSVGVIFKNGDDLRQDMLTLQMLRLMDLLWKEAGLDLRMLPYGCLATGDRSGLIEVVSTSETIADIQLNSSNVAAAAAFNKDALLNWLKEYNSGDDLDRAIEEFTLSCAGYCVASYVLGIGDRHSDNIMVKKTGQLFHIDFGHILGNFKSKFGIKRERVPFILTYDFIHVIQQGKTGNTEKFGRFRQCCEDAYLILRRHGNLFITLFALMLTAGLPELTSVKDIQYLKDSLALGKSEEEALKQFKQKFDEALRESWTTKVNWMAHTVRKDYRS
Sequence (P27986 whole entry partner): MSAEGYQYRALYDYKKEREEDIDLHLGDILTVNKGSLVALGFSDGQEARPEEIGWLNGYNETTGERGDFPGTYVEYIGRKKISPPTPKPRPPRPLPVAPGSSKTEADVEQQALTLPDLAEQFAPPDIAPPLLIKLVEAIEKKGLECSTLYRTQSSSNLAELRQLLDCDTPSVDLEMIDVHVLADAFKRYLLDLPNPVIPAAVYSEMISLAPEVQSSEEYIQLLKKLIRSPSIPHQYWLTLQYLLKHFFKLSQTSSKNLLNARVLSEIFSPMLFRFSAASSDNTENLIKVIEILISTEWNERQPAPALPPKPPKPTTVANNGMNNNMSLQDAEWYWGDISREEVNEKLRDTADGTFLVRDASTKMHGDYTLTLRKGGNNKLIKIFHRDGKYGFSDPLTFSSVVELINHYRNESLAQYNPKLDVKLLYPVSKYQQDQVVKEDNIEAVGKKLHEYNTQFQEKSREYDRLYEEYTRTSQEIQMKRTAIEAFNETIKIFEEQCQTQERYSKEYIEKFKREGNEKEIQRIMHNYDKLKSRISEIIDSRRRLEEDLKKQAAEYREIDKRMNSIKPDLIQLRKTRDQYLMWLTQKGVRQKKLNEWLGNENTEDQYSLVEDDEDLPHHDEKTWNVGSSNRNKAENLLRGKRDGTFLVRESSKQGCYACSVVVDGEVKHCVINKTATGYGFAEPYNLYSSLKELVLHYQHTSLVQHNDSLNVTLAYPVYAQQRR

Below, 2 compounds whose answers are already recorded.
{"compound": "CN1CC2CN(C(=O)c3cnc4ccc(-c5ccc6oc(N)nc6c5)cn34)CC2C1 (stereo not drawn)", "IC50": "< 1 µM"}
{"compound": "O=C(c1cnc2ccc(-c3ccnc4[nH]ncc34)cn12)N1CCOCC1", "IC50": "> 10 µM"}

For the next question, use this compound.
Per the records, this compound ( CN1CCN(CCc2nnc3ccc(-c4ccc5nc(N)oc5c4)cn23)CC1 ) has IC50 equal to > 10 µM

----------
Values of pIC50 reported for PI3K δ (Homo sapiens) appear below.
pIC50: −log10 of the molar value.

Here is how some molecules turned out for pIC50.
{"molecule": "Nc1nc2cc(-c3cnc4ccc(C(=O)N5CCOCC5)cn34)ccc2o1 [Compound 12]", "tested.system": "PI3K δ (Homo sapiens)", "pIC50": "< 5.00"}
{"molecule": "Cc1cc(-c2ccc3nc(N)oc3c2)cn2c(-c3ccncc3)nnc12 [Compound 14]", "tested.system": "PI3K δ (Homo sapiens)", "pIC50": "< 5.00"}
{"molecule": "Nc1nc2cc(-c3ccc4ncc(C(=O)NCCOCCO)n4c3)ccc2o1 [Compound 21]", "tested.system": "PI3K δ (Homo sapiens)", "pIC50": "> 5.00"}
{"molecule": "Nc1nc2cc(-c3cnc4ccc(C(=O)N5C6CCC5COC6)cn34)ccc2o1 [Compound 11]", "tested.system": "PI3K δ (Homo sapiens)", "pIC50": "< 5.00"}

// next item, pIC50 requested
pIC50 reading for Cc1ncc(-c2ccc3ncc(C(=O)N4C5CCC4COC5)n3c2)c2cn[nH]c12 [Compound 9] : > 5.00
